- assayDetails: AUC(last) in CD-1 mouse at 10 mg/kg, po by LC/MS/MS analysis
- Assay type: ADME, organism-based
- Parameters: dose 10 mg/kg, route po
- measurementSetup: in vivo

structureAsSmiles: Cc1cccc(-c2nc(Nc3ccncc3)c3ccccc3n2)n1
unitAnnotation: ng·h/mL
AUClast: 75

structureAsSmiles: Cc1cccc(-c2nc(Nc3ccncc3)c3ccn(C)c3n2)n1
unitAnnotation: ng·h/mL
AUClast: 640

structureAsSmiles: Cc1cccc(-c2nc(Nc3ccc4nn(C)nc4c3)c3ccccc3n2)n1
unitAnnotation: ng·h/mL
AUClast: 440

structureAsSmiles: Cc1cccc(-c2nc(Nc3ccc4c(c3)OCO4)c3ccccc3n2)n1
unitAnnotation: ng·h/mL
AUClast: 250

====

- assayDetails: Metabolic stability of the compound in CD-1 mouse liver microsomes assessed as parent compound remaining at 5 uM preincubated for 5 mins followed by NADPH addition and measured after 30 mins by LC-TOF/MS analysis
- Assay type: ADME, Microsome
- measurementSetup: time 35 min, read-out: Stability
// NB: equality with 20% counts as f; only remaining at 0.5 h, 5 µM strictly below is t

structureAsSmiles: Cc1cccc(-c2nc(Nc3ccncc3)c3ccn(C)c3n2)n1
groupLabel: f
//
structureAsSmiles: Cc1cccc(-c2nc(Nc3ccc4nc(C)sc4c3)c3ccccc3n2)n1
groupLabel: t
//
structureAsSmiles: Cc1cccc(-c2nc(Nc3ccncc3)c3ccccc3n2)n1
groupLabel: t
//
structureAsSmiles: COc1ccc2nc(-c3cccc(C)n3)nc(Nc3ccncc3)c2c1
groupLabel: f
//
structureAsSmiles: Cc1cccc(-c2nc(Nc3ccc4c(c3)OCO4)c3ccccc3n2)n1
groupLabel: f
//
structureAsSmiles: Cc1cccc(-c2nc(Nc3ccc4[nH]ncc4c3)c3ccccc3n2)n1
groupLabel: t
//
structureAsSmiles: Cc1cccc(-c2nc(Nc3ccc4c(c3)nnn4C)c3ccccc3n2)n1
groupLabel: f
//
structureAsSmiles: Cc1cccc(-c2nc(Nc3ccc4ccsc4c3)c3ccccc3n2)n1
groupLabel: t
//
structureAsSmiles: Cc1cccc(-c2nc(Nc3ccc4c(cnn4C)c3)c3ccccc3n2)n1
groupLabel: t

====

MIC90 overview
- System: Mycobacterium tuberculosis
- assayDetails: Antitubercular activity against non-replicating Mycobacterium tuberculosis H37Rv expressing luxCDAB assessed as inhibition of bacterial growth incubated for 7 days under hypoxia conditions followed by incubation in normoxia conditions for 5 days by luminescence based analysis
- Type: functional
- measurementSetup: 288 h, time 12 day

structureAsSmiles: Cc1cccc(-c2nc(Nc3ccc4occc4c3)c3ccccc3n2)n1
sign: =
MIC90 / µM: 1.3
--
structureAsSmiles: c1ccc(-c2nc(Nc3ccncc3)c3ccccc3n2)nc1
sign: =
MIC90 / µM: 2.5
--
structureAsSmiles: Cc1cccc(-c2nc(Nc3ccncc3)c3ccn(C)c3n2)n1
sign: <
MIC90 / µM: 1
--
structureAsSmiles: Clc1cccc(-c2nc(Nc3ccncc3)c3ccccc3n2)c1
sign: >
MIC90 / µM: 10
--
structureAsSmiles: Cc1cccc(-c2nc(Nc3ccc4nn[nH]c4c3)c3ccccc3n2)n1
sign: =
MIC90 / µM: 5
--
structureAsSmiles: Fc1cccc(-c2nc(Nc3ccncc3)c3ccccc3n2)n1
sign: =
MIC90 / µM: 5
--
structureAsSmiles: c1cncc(-c2nc(Nc3ccncc3)c3ccccc3n2)c1
sign: >
MIC90 / µM: 10
--
structureAsSmiles: Cc1cccc(-c2nc(Nc3ccc4ncoc4c3)c3ccccc3n2)n1
sign: =
MIC90 / µM: 5
--
structureAsSmiles: Cc1csc(-c2nc(Nc3ccncc3)c3ccccc3n2)n1
sign: >
MIC90 / µM: 10
--
structureAsSmiles: c1ccc2c(Nc3ccncc3)nc(-c3ccc4c(c3)OCO4)nc2c1
sign: >
MIC90 / µM: 10
--
structureAsSmiles: Cc1cccc(-c2nc(Nc3ccc4c(cnn4C)c3)c3ccccc3n2)n1
sign: =
MIC90 / µM: 1.3
--
structureAsSmiles: Cc1cccc(-c2nc(Oc3ccc4ncsc4c3)c3ccccc3n2)n1
sign: =
MIC90 / µM: 0.3
--
structureAsSmiles: Cn1ccc(-c2nc(Nc3ccncc3)c3ccccc3n2)n1
sign: >
MIC90 / µM: 10
--
structureAsSmiles: Cc1cccc(-c2nc(Nc3ccc4nnn(C)c4c3)c3ccccc3n2)n1
sign: =
MIC90 / µM: 0.3
--
structureAsSmiles: Cc1cccc(-c2nc(Nc3ccc4scnc4c3)c3ccccc3n2)n1
sign: =
MIC90 / µM: 1.3
--
structureAsSmiles: Cc1cc(-c2nc(Nc3ccncc3)c3ccccc3n2)cs1
sign: >
MIC90 / µM: 10
--
structureAsSmiles: Cc1cccc(-c2cc3ccccc3c(Nc3ccncc3)n2)n1
sign: >
MIC90 / µM: 10
--
structureAsSmiles: COc1ccc2nc(-c3cccc(C)n3)nc(Nc3ccncc3)c2c1
sign: <
MIC90 / µM: 1
--
structureAsSmiles: COc1cccc(-c2nc(Nc3ccncc3)c3ccccc3n2)n1
sign: >
MIC90 / µM: 10
--
structureAsSmiles: Cc1cccc(-c2nc(Nc3ccc4c(c3)OCO4)c3ccccc3n2)n1
sign: =
MIC90 / µM: 1.3
--
structureAsSmiles: Cc1cccc(-c2nc(Nc3ccc4ncn(C)c4c3)c3ccccc3n2)n1
sign: >
MIC90 / µM: 10
--
structureAsSmiles: c1ccc2c(Nc3ccncc3)nc(-c3cnccn3)nc2c1
sign: >
MIC90 / µM: 10
--
structureAsSmiles: Cc1cccc(-c2nc(N(C)c3ccc4ncsc4c3)c3ccccc3n2)n1
sign: =
MIC90 / µM: 1.3

====

Reported MIC50 values follow for various compounds
- Test system: Mycobacterium tuberculosis
- assayDetails: Antitubercular activity against non-replicating Mycobacterium tuberculosis H37Rv expressing luxCDAB assessed as inhibition of bacterial growth incubated for 7 days under hypoxia conditions followed by incubation in normoxia conditions for 5 days by luminescence based analysis
- Format: functional
- measurementSetup: 288 h, time 12 day
endpoint: MIC50

structureAsSmiles: Cc1cccc(-c2nc(Nc3ccc4ncn(C)c4c3)c3ccccc3n2)n1
endpoint: MIC50
reportedResult: 0.3 µM
--
structureAsSmiles: COc1cncc(-c2nc(Nc3ccncc3)c3ccccc3n2)n1
endpoint: MIC50
reportedResult: 5 µM
--
structureAsSmiles: Cc1cccc(-c2nc(Nc3ccc4occc4c3)c3ccccc3n2)n1
endpoint: MIC50
reportedResult: < 0.3 µM
--
structureAsSmiles: COc1cccc(-c2nc(Nc3ccncc3)c3ccccc3n2)n1
endpoint: MIC50
reportedResult: 5 µM
--
structureAsSmiles: Cc1cccc(-c2nc(Nc3ccc4nn(C)nc4c3)c3ccccc3n2)n1
endpoint: MIC50
reportedResult: < 0.3 µM
--
structureAsSmiles: Cn1ccc(-c2nc(Nc3ccncc3)c3ccccc3n2)n1
endpoint: MIC50
reportedResult: > 10 µM
--
structureAsSmiles: Cc1cccc(-c2nc(Nc3ccc4c(c3)nnn4C)c3ccccc3n2)n1
endpoint: MIC50
reportedResult: < 0.3 µM
--
structureAsSmiles: Cc1cccc(-c2nc(Nc3ccc4ncccc4c3)c3ccccc3n2)n1
endpoint: MIC50
reportedResult: 0.3 µM
--
structureAsSmiles: COc1ccc2nc(-c3cccc(C)n3)nc(Nc3ccncc3)c2c1
endpoint: MIC50
reportedResult: < 1 µM
--
structureAsSmiles: Cc1cccc(-c2nc(Nc3ccc4c(c3)OCO4)c3ccccc3n2)n1
endpoint: MIC50
reportedResult: < 0.3 µM
--
structureAsSmiles: Cc1cc(Nc2nc(-c3cccc(C)n3)nc3ccccc23)ccn1
endpoint: MIC50
reportedResult: < 0.3 µM

====

MIC50 values for the molecules below.
- Tested on: Mycobacterium tuberculosis
- assayDetails: Antitubercular activity against non-replicating Mycobacterium tuberculosis H37Rv expressing luxCDAB assessed as inhibition of bacterial growth incubated for 7 days under hypoxia conditions followed by incubation in normoxia conditions for 5 days by luminescence based analysis
- Format: functional
- measurementSetup: 288 h, time 12 day

structureAsSmiles: CSc1cccc(Nc2nc(-c3cccc(C)n3)nc3ccccc23)c1
assayTarget: Mycobacterium tuberculosis
unitAnnotation: µM
sign: <
MIC50: 0.3
//
structureAsSmiles: Cc1cccc(-c2nc(Nc3ccncc3)c3cc(O)ccc3n2)n1
assayTarget: Mycobacterium tuberculosis
unitAnnotation: µM
sign: =
MIC50: 1
//
structureAsSmiles: Clc1cccc(-c2nc(Nc3ccncc3)c3ccccc3n2)c1
assayTarget: Mycobacterium tuberculosis
unitAnnotation: µM
sign: >
MIC50: 10
//
structureAsSmiles: Cc1cccc(-c2cc3ccccc3c(Nc3ccncc3)n2)n1
assayTarget: Mycobacterium tuberculosis
unitAnnotation: µM
sign: =
MIC50: 1
//
structureAsSmiles: c1ccc2c(Nc3ccncc3)nc(-c3cnccn3)nc2c1
assayTarget: Mycobacterium tuberculosis
unitAnnotation: µM
sign: =
MIC50: 1
//
structureAsSmiles: Cc1cccc(-c2nc(Nc3ccc4nn(C)cc4c3)c3ccccc3n2)n1
assayTarget: Mycobacterium tuberculosis
unitAnnotation: µM
sign: <
MIC50: 0.3
//
structureAsSmiles: Cc1cccc(-c2nc(Nc3ccc4[nH]ccc4c3)c3ccccc3n2)n1
assayTarget: Mycobacterium tuberculosis
unitAnnotation: µM
sign: =
MIC50: 1.3

====

- assayDetails: Oral bioavailability in CD-1 mouse at 10 mg/kg by LC/MS/MS analysis
- Format: ADME, organism-based
- measurementSetup: in vivo

structureAsSmiles: Cc1cccc(-c2nc(Nc3ccncc3)c3ccn(C)c3n2)n1
unitAnnotation: %
bioavailability: 25
